All values here come from patent US20220281868A1.

# study_target: human factor XIa (Homo sapiens, UniProt P03951)
# Sequence (P03951 388-625 limits assumed): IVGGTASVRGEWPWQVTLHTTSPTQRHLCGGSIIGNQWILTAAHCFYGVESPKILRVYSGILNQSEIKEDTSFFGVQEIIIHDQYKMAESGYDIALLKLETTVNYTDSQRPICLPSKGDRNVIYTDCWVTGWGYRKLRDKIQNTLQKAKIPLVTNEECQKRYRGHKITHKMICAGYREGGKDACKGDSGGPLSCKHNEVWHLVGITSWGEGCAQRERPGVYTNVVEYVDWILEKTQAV
# Sequence (P03951 19-387 partner limits assumed): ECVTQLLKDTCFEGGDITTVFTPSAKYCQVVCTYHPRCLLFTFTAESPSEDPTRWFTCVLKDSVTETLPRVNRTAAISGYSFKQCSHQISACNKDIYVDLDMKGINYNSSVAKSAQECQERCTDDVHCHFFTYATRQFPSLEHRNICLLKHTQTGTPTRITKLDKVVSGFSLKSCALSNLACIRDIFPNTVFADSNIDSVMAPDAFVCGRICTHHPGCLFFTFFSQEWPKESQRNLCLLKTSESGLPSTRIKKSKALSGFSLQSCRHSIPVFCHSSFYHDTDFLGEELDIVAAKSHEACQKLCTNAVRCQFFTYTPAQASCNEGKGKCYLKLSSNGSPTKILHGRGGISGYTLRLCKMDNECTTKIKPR
measure: pIC50
In textbook form, pIC50 equals minus log to base ten of the concentration in mol/L.

Incoming: What measured pIC50 is associated with C[C@@H]1CCCC(c2coc(-c3cc(Cl)ccc3-n3cc(C#N)nn3)cc2=O)c2cc(ccn2)-c2c(cnn2C(F)F)NC1=O (stereo partly shown) [Compound 4] on human factor XIa (Homo sapiens, UniProt P03951)?
Outgoing: 8.64
